The reported measurements were obtained from paper PMC10435442.

Experiment: in vitro
Settings: human, MCF-10A cells (nonmalignant breast)
REPORTED_METRIC: viability at 48 h, 100 ug (%)
The answer is to be given in %; state only the numeric part.

Worked examples follow.
COMPOUND	viability at 48 h, 100 ug / %
CC(=O)Oc1ccc2c(COC(=O)c3ccccc3)cc(=O)oc2c1	52.2
CC(=O)Oc1ccc2c(COC(=O)c3ccc(Cl)cc3)cc(=O)oc2c1	49.6
O=C(OCc1cc(=O)oc2cc(O)ccc12)c1ccccc1	44.4
COc1cccc2c1C(=O)c1c(O)c3c(c(O)c1C2=O)C[C@@](O)(C(=O)CO)C[C@@H]3O[C@H]1C[C@H](N)[C@H](O)[C@H](C)O1 [Doxorubicin, reference compound]	35.9
O=C(COc1ccc2c(CCl)cc(=O)oc2c1)c1ccc(Cl)cc1	46.8

Could you tell me which viability at 48 h, 100 ug is on file for "COc1ccccc1C(=O)OCc1cc(=O)oc2cc(OC(C)=O)ccc12" ?
50.8

* * *

Test system: MCF-7
Test: MTT cytotoxicity assay, MCF-7
Settings: MCF7, 6.3ug
Param label: returns fulfilled when % viability < 50%, returns not fulfilled otherwise, including exact equality.

A selection of reference data follows.
COMPOUND	GROUP
O=C(COc1ccc2c(COC(=O)c3ccccc3)cc(=O)oc2c1)c1ccccc1	not fulfilled
COc1cccc2c1C(=O)c1c(O)c3c(c(O)c1C2=O)C[C@@](O)(C(=O)CO)C[C@@H]3O[C@H]1C[C@H](N)[C@H](O)[C@H](C)O1 [Doxorubicin, reference compound]	fulfilled
O=C(COc1ccc2c(COC(=O)c3ccccc3)cc(=O)oc2c1)c1ccc(Cl)cc1	fulfilled

Say whether its % viability is strictly beneath 50%. Entry: "COc1ccccc1C(=O)OCc1cc(=O)oc2cc(OCC(=O)c3ccccc3)ccc12"
not fulfilled

Can you handle "O=C(OCc1cc(=O)oc2cc(O)ccc12)c1ccccc1" next?
fulfilled

Can you handle "O=C(COc1ccc2c(CCl)cc(=O)oc2c1)c1ccccc1" next?
not fulfilled

Can you handle "O=C(OCc1cc(=O)oc2cc(O)ccc12)c1ccc(Cl)cc1" next?
not fulfilled

Can you handle "CC(=O)Oc1ccc2c(COC(=O)c3ccccc3)cc(=O)oc2c1" next?
not fulfilled

* * *

Test system: MDA-MB-231
Experiment: MTT cytotoxicity assay, MDA-MB-231
Details: MDA, 25ug (log conc. 1.4)
REPORTED_METRIC: % viability (%)
The answer is to be given in %; state only the numeric part.

Worked examples follow.
COMPOUND	% viability [%]
O=C(COc1ccc2c(CCl)cc(=O)oc2c1)c1ccccc1	33.628
COc1ccccc1C(=O)OCc1cc(=O)oc2cc(OCC(=O)c3ccccc3)ccc12	52.2673
O=C(COc1ccc2c(COC(=O)c3ccc(Cl)cc3)cc(=O)oc2c1)c1ccc(Cl)cc1	30.609
O=C(COc1ccc2c(CCl)cc(=O)oc2c1)c1ccc(Cl)cc1	49.4083

Could you tell me which % viability is on file for "CC(=O)Oc1ccc2c(COC(=O)c3ccc(Cl)cc3)cc(=O)oc2c1" ?
26.136

Can you handle "CC(=O)Oc1ccc2c(COC(=O)c3ccccc3)cc(=O)oc2c1" next?
46.9551

Can you handle "O=C(OCc1cc(=O)oc2cc(O)ccc12)c1ccc(Cl)cc1" next?
49.2762

Can you handle "COc1ccccc1C(=O)OCc1cc(=O)oc2cc(OC(C)=O)ccc12" next?
46.8873

Can you handle COc1cccc2c1C(=O)c1c(O)c3c(c(O)c1C2=O)C[C@@](O)(C(=O)CO)C[C@@H]3O[C@H]1C[C@H](N)[C@H](O)[C@H](C)O1 [Doxorubicin, reference compound] next?
40.9788

Can you handle "COc1ccccc1C(=O)OCc1cc(=O)oc2cc(OCC(=O)c3ccc(Cl)cc3)ccc12" next?
36.538

Can you handle "COc1ccccc1C(=O)OCc1cc(=O)oc2cc(O)ccc12" next?
34.142

* * *

Molecular target: EGFR (Homo sapiens)
Assay: In vitro EGFR enzyme inhibition assay (ELISA)
Details: conc 1 (unit not given); lab report 01-11-2021
# EGFR %inh values compiled below
The answer is to be given in %; state only the numeric part.

Could you tell me which EGFR %inh is on file for "O=C(COc1ccc2c(COC(=O)c3ccccc3)cc(=O)oc2c1)c1ccccc1" ?
67

Can you handle "O=C(OCc1cc(=O)oc2cc(O)ccc12)c1ccccc1" next?
63

Can you handle "COc1ccccc1C(=O)OCc1cc(=O)oc2cc(O)ccc12" next?
70

Can you handle "O=C(OCc1cc(=O)oc2cc(O)ccc12)c1ccc(Cl)cc1" next?
60

Can you handle "O=C(COc1ccc2c(CCl)cc(=O)oc2c1)c1ccc(Cl)cc1" next?
74

* * *

# % viability values compiled below
Tested on: MCF-7
Experiment: MTT cytotoxicity assay, MCF-7
Conditions: MCF7, 0.4ug
The answer is to be given in %; state only the numeric part.

MOLECULE_SMILES	% viability / %
COc1ccccc1C(=O)OCc1cc(=O)oc2cc(OC(C)=O)ccc12	67.97
O=C(COc1ccc2c(COC(=O)c3ccc(Cl)cc3)cc(=O)oc2c1)c1ccccc1	77.17
O=C(COc1ccc2c(CCl)cc(=O)oc2c1)c1ccc(Cl)cc1	87.56
COc1ccccc1C(=O)OCc1cc(=O)oc2cc(O)ccc12	68.369

Could you tell me which % viability is on file for "CC(=O)Oc1ccc2c(COC(=O)c3ccc(Cl)cc3)cc(=O)oc2c1" ?
88.083

* * *

Test system: MDA-MB-231
Assay: MTT cytotoxicity assay, MDA-MB-231
Settings: MDA, 100ug (log conc. 2)
REPORTED_METRIC: % viability

Worked examples follow.
COMPOUND	% viability
O=C(COc1ccc2c(CCl)cc(=O)oc2c1)c1ccccc1 [Compound 5]	22.3344%
CC(=O)Oc1ccc2c(COC(=O)c3ccccc3)cc(=O)oc2c1 [Compound 13]	38.515%
O=C(OCc1cc(=O)oc2cc(O)ccc12)c1ccc(Cl)cc1 [Compound 3]	40.41%
COc1ccccc1C(=O)OCc1cc(=O)oc2cc(OCC(=O)c3ccc(Cl)cc3)ccc12 [Compound 12]	26.8697%
CC(=O)Oc1ccc2c(COC(=O)c3ccc(Cl)cc3)cc(=O)oc2c1 [Compound 14]	15.4795%

Lab note: need % viability for COc1ccccc1C(=O)OCc1cc(=O)oc2cc(OCC(=O)c3ccccc3)ccc12 [Compound 11] on MDA-MB-231, anyone have it?
41.289%

Can you handle O=C(COc1ccc2c(COC(=O)c3ccccc3)cc(=O)oc2c1)c1ccccc1 [Compound 7] next?
38.991%

Can you handle COc1ccccc1C(=O)OCc1cc(=O)oc2cc(OC(C)=O)ccc12 [Compound 15] next?
37.745%

Can you handle COc1ccccc1C(=O)OCc1cc(=O)oc2cc(O)ccc12 [Compound 4] next?
25.2071%

Can you handle O=C(COc1ccc2c(COC(=O)c3ccc(Cl)cc3)cc(=O)oc2c1)c1ccc(Cl)cc1 [Compound 10] next?
23.5084%

Can you handle O=C(COc1ccc2c(CCl)cc(=O)oc2c1)c1ccc(Cl)cc1 [Compound 6] next?
41.124%

* * *

Target: EGFR (Homo sapiens, UniProt P00533)
Sequence (P00533 25-1210): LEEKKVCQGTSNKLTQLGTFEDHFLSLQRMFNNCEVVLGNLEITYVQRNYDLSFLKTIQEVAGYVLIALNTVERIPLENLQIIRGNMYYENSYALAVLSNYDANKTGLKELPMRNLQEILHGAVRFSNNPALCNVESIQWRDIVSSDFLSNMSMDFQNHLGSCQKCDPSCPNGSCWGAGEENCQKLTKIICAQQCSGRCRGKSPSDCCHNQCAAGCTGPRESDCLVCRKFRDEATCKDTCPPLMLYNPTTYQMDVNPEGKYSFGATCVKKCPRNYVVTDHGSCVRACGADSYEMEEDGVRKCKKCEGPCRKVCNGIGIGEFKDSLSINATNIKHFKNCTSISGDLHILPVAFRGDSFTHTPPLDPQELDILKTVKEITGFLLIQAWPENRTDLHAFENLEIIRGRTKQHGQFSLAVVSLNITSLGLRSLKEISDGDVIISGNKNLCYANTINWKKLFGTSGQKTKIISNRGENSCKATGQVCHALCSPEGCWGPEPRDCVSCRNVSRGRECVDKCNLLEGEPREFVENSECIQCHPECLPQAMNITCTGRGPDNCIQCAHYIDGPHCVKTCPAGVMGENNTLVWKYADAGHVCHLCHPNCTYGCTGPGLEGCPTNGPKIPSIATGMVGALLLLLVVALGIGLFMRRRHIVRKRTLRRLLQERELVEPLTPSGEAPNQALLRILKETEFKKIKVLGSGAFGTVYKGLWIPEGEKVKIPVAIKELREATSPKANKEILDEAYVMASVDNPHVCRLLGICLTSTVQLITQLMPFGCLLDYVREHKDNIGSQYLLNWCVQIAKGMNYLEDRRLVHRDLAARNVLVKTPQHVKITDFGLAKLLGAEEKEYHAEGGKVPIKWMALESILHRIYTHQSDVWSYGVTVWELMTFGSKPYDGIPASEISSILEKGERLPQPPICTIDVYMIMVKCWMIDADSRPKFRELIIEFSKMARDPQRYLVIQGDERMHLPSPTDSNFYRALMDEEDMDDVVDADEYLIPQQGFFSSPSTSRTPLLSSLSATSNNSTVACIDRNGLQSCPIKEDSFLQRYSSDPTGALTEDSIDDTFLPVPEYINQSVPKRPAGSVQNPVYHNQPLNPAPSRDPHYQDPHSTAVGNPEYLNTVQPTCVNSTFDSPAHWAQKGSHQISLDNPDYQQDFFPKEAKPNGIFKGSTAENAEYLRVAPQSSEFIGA
Test: In vitro EGFR enzyme inhibition assay (ELISA)
Conditions: EGFR IC50, lab report 01-09-2021, 04 compounds, reference Erlotinib
# IC50 values compiled below
The answer is to be given in nM; state only the numeric part.

COMPOUND	IC50 / nM
COc1ccccc1C(=O)OCc1cc(=O)oc2cc(OCC(=O)c3ccccc3)ccc12 [Compound 11]	1830
O=C(COc1ccc2c(CCl)cc(=O)oc2c1)c1ccccc1 [Compound 5]	316

Could you tell me which IC50 is on file for CC(=O)Oc1ccc2c(COC(=O)c3ccc(Cl)cc3)cc(=O)oc2c1 [Compound 14] ?
2440

Can you handle COc1ccccc1C(=O)OCc1cc(=O)oc2cc(OCC(=O)c3ccc(Cl)cc3)ccc12 [Compound 12] next?
177

* * *

Target: EGFR (Homo sapiens, UniProt P00533)
Experiment: In vitro EGFR enzyme inhibition assay (ELISA)
Details: conc 10 (unit not given); lab report 01-11-2021
# EGFR %inh values compiled below
The answer is to be given in %; state only the numeric part.

Could you tell me which EGFR %inh is on file for "O=C(OCc1cc(=O)oc2cc(O)ccc12)c1ccccc1" ?
84

* * *

Assay: in vitro
Details: human, MCF-10A cells (nonmalignant breast)
Param label: returns t when viability at 48 h, 25 ug < 60%, returns f otherwise, including exact equality.

COMPOUND	GROUP
O=C(OCc1cc(=O)oc2cc(O)ccc12)c1ccccc1	t
O=C(COc1ccc2c(CCl)cc(=O)oc2c1)c1ccc(Cl)cc1	t
COc1cccc2c1C(=O)c1c(O)c3c(c(O)c1C2=O)C[C@@](O)(C(=O)CO)C[C@@H]3O[C@H]1C[C@H](N)[C@H](O)[C@H](C)O1 [Doxorubicin, reference compound]	t

--- query ---
Say whether its viability at 48 h, 25 ug is strictly beneath 60%. Entry: "CC(=O)Oc1ccc2c(COC(=O)c3ccccc3)cc(=O)oc2c1"
f
